Target: human Claudin-6 (CLDN6) (human) (UniProt P56747)
Experiment: FACS, limiting dilution, ARK2 cells
Parameter: FACS signal at 1000 nM

Value lookup for FACS signal at 1000 nM; key = AB3-7 (antibody, V domains shown, humanized; also called AB23; humanized AB3-7) VH: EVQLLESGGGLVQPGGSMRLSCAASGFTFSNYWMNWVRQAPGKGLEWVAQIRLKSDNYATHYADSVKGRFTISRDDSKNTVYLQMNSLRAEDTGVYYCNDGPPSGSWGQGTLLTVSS VL: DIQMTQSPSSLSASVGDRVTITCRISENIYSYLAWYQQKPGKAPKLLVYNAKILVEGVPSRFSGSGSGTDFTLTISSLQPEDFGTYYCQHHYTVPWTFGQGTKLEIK
11400

Next binder: AB S7 (antibody, V domains shown) VH: QVQLVQSGAEVKKPGASVKMSCKASGYTFTTYTIHWVRQAPGQGLEWIGFINPSSGYTEYAQKFQGRVTLTADKSTSTVYMELSSLRSEDTAVYFCANGDYYVAYWGQGTLVTVSS VL: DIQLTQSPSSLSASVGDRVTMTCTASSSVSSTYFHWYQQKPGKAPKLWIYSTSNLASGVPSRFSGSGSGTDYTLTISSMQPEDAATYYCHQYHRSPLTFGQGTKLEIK
78700

Next binder: AB S4 (antibody, V domains shown) VH: EVQLLESGGGLVQPGGSMRLSCAASGFTFSNYWMNWVRQAPGKGLEWIAQIRLKSDNYATHYTDSVKGRFTISRDDSKSTVYLQMNSLRAEDTGTYYCNDGPPSGSWGQGTLLTVSS VL: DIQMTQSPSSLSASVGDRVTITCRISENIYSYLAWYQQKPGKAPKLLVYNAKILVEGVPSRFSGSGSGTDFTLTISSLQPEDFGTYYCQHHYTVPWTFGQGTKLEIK
62500

Next binder: AB1-11 (antibody, V domains shown, humanized; also called humanized AB1-11; HU-11) VH: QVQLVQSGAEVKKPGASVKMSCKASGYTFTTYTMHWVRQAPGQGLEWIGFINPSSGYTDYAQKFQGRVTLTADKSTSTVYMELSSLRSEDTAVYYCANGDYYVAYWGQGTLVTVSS VL: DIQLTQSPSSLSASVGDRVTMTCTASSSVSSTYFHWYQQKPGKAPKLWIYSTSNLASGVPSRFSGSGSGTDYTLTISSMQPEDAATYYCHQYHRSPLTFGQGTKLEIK
50500

// provenance: patent US20230049752A1
